Assay: Aqueous solubility of the compound in phosphate buffer at pH 7
Format: physicochemical
assay.metric: solubility (µg/mL)
# value in µg/mL; strip the unit string

Sample answers from the record:
- smiles.text: "O=C(O)c1cc(-n2cccc2)ccc1O"
  solubility [µg/mL]: 8600
- smiles.text: "O=C(O)c1cc(-c2cccs2)ccc1O"
  solubility [µg/mL]: 7000

O=C(O)c1ccc(-c2cscn2)cc1O has a reported solubility of 8700
